# System: Acinetobacter baumannii ABA19-1
# Assay type: cell-based
# TEST_CONTEXT: ABA19-1
Bridge positions count the residues as written; N and C are the ends. Square brackets hold non-standard residues; d marks the D form. Peptide text beside a SMILES is read from it. * marks the point of attachment. Dab(CH2SO3H) = N[C@@H](CCNCS(=O)(=O)O)C(=O)O; Heptanoyl(6-Me) = CC(C)CCCCC(=O)*; Sulfomethyl = O=S(=O)(O)C*; dOrn = NCCC[C@@H](N)C(=O)O; Nonanoyl = CCCCCCCCC(=O)*; dDab = NCC[C@@H](N)C(=O)O; Heptanoyl = CCCCCCC(=O)*; Octanoyl = CCCCCCCC(=O)*; Dab = NCC[C@H](N)C(=O)O; Dap = NC[C@H](N)C(=O)O
MEASURE_NAME: MIC (µg/mL)
All answers are understood in µg/mL, so give the number only.

Answered cases to consult:
[[record]]
molecule = "CCCCCCCCC(=O)N[C@@H](CN)C(=O)N[C@H](C(=O)N[C@H](CO)C(=O)N[C@H]1CCNC(=O)[C@H]([C@@H](C)O)NC(=O)[C@H](CCN)NC(=O)[C@H](CCN)NC(=O)[C@H]([C@@H](C)O)NC(=O)[C@@H](Cc2ccccc2)NC(=O)[C@H](CCN)NC1=O)[C@@H](C)O [Compound 55] (Nonanoyl-[Dap]T[dS][Dab][Dab][dF]T[Dab][Dab]T; lactam 4-C)"
units_label = "µg/mL"
quantitative_readout = 0.25

[[record]]
molecule = "CC(C)CCCCC(=O)N[C@@H](CCN)C(=O)N[C@H](C(=O)N[C@@H](CN)C(=O)N[C@H]1CCNC(=O)[C@H]([C@@H](C)O)NC(=O)[C@H](CCN)NC(=O)[C@H](CCN)NC(=O)[C@H]([C@@H](C)O)NC(=O)[C@@H](Cc2ccccc2)NC(=O)[C@H](CCN)NC1=O)[C@@H](C)OCS(=O)(=O)O [Compound 113] ({Heptanoyl(6-Me)}-[Dab]T(Sulfomethyl)[Dap][Dab][Dab][dF]T[Dab][Dab]T; lactam 4-C)"
units_label = "µg/mL"
quantitative_readout = 0.06

[[record]]
molecule = "CCCCCCCC(=O)N[C@@H](CCN)C(=O)N[C@H](C(=O)N[C@H](CO)C(=O)N[C@H]1CCNC(=O)[C@H]([C@@H](C)O)NC(=O)[C@H](CN)NC(=O)[C@H](CCN)NC(=O)[C@H]([C@@H](C)O)NC(=O)[C@@H](Cc2ccccc2)NC(=O)[C@H](CCN)NC1=O)[C@@H](C)O [Compound 83] (Octanoyl-[Dab]T[dS][Dab][Dab][dF]T[Dab][Dap]T; lactam 4-C)"
units_label = "µg/mL"
quantitative_readout = 0.06

[[record]]
molecule = "CCCCCCC(=O)N[C@@H](CN)C(=O)N[C@H](C(=O)N[C@H](CCN)C(=O)N[C@H]1CCNC(=O)[C@H]([C@@H](C)O)NC(=O)[C@H](CCN)NC(=O)[C@H](CCN)NC(=O)[C@H](CC(C)C)NC(=O)[C@@H](CC(C)C)NC(=O)[C@H](CCN)NC1=O)[C@@H](C)O [Compound 99] (Heptanoyl-[Dap]T[dDab][Dab][Dab][dL]L[Dab][Dab]T; lactam 4-C)"
units_label = "µg/mL"
quantitative_readout = 0.03

[[record]]
molecule = "CC(C)CCCCC(=O)N[C@@H](CCN)C(=O)N[C@H](C(=O)N[C@@H](CN)C(=O)N[C@H]1CCNC(=O)[C@H]([C@@H](C)O)NC(=O)[C@H](CCN)NC(=O)[C@H](CCN)NC(=O)[C@H]([C@@H](C)O)NC(=O)[C@@H](Cc2ccccc2)NC(=O)[C@H](CCNCS(=O)(=O)O)NC1=O)[C@@H](C)O [Compound 118] ({Heptanoyl(6-Me)}-[Dab]T[Dap][Dab][Dab(CH2SO3H)][dF]T[Dab][Dab]T; lactam 4-C)"
units_label = "µg/mL"
quantitative_readout = 0.25

[[record]]
molecule = "CCCCCCC(=O)N[C@@H](CCN)C(=O)N[C@H](C(=O)N[C@@H](CN)C(=O)N[C@H]1CCNC(=O)[C@H]([C@@H](C)O)NC(=O)[C@H](CCN)NC(=O)[C@H](CCN)NC(=O)[C@H](CC(C)C)NC(=O)[C@@H](Cc2ccccc2)NC(=O)[C@H](CCN)NC1=O)[C@@H](C)O [Compound 39] (Heptanoyl-[Dab]T[Dap][Dab][Dab][dF]L[Dab][Dab]T; lactam 4-C)"
units_label = "µg/mL"
quantitative_readout = 0.03

[[record]]
molecule = "CCCCCCCCC(=O)N[C@@H](CCN)C(=O)N[C@H](C(=O)N[C@H](CCCN)C(=O)N[C@H]1CCNC(=O)[C@H]([C@@H](C)O)NC(=O)[C@H](CCN)NC(=O)[C@H](CCN)NC(=O)[C@H]([C@@H](C)O)NC(=O)[C@@H](Cc2ccccc2)NC(=O)[C@H](CCN)NC1=O)[C@@H](C)O [Compound 25] (Nonanoyl-[Dab]T[dOrn][Dab][Dab][dF]T[Dab][Dab]T; lactam 4-C)"
units_label = "µg/mL"
quantitative_readout = 0.125

[[record]]
molecule = "CC(C)CCCCC(=O)N[C@@H](CCN)C(=O)N[C@H](C(=O)N[C@H](CO)C(=O)N[C@H]1CCNC(=O)[C@H]([C@@H](C)OCS(=O)(=O)O)NC(=O)[C@H](CCN)NC(=O)[C@H](CCN)NC(=O)[C@H]([C@@H](C)O)NC(=O)[C@@H](Cc2ccccc2)NC(=O)[C@H](CCN)NC1=O)[C@@H](C)O [Compound 106] ({Heptanoyl(6-Me)}-[Dab]T[dS][Dab][Dab][dF]T[Dab][Dab]T(Sulfomethyl); lactam 4-C)"
units_label = "µg/mL"
quantitative_readout = 0.06


Now let's try a different one.
Give a short answer stating reported MIC for CC(C)CCCCC(=O)N[C@@H](CCN)C(=O)N[C@H](C(=O)N[C@@H](CN)C(=O)N[C@H]1CCNC(=O)[C@H]([C@@H](C)O)NC(=O)[C@H](CCN)NC(=O)[C@H](CCN)NC(=O)[C@H](CC(C)C)NC(=O)[C@@H](Cc2ccccc2)NC(=O)[C@H](CCN)NC1=O)[C@@H](C)O [Compound 37] ({Heptanoyl(6-Me)}-[Dab]T[Dap][Dab][Dab][dF]L[Dab][Dab]T; lactam 4-C) .
0.03
